test system: Staphylococcus aureus; test: Growth inhibition of Staphylococcus aureus NCIM 2602 at 10 ug/ml measured after 12 hrs relative to control; format: functional; settings: NCIM 2602, 12 h, read-out: GI
Endpoint: inhibition of growth at 10 µg/mL (%)
Could you give me the number in %? Just the number is fine.

Sample "Cc1nc(-c2ccc(F)cc2)oc1-c1csc(Cc2ccc(Cl)cc2)n1" — what was its inhibition of growth at 10 µg/mL?
14.1

Sample "Cc1ccc(-c2nc(-c3oc(-c4ccc(F)cc4)nc3C)cs2)cc1" — what was its inhibition of growth at 10 µg/mL?
12.8

Sample "Cc1nc(-c2ccc(F)cc2)oc1-c1csc(Cc2ccccc2)n1" — what was its inhibition of growth at 10 µg/mL?
95.9

Sample "Cc1nc(-c2ccccc2)oc1-c1csc(-c2ccc(F)c(Cl)c2)n1" — what was its inhibition of growth at 10 µg/mL?
80

Sample "Cc1nc(-c2ccc(F)cc2)oc1-c1csc(-c2ccc(Cl)cc2)n1" — what was its inhibition of growth at 10 µg/mL?
19.5

Sample "Cc1nc(-c2ccc(F)cc2)oc1-c1csc(Cc2ccc(F)cc2)n1" — what was its inhibition of growth at 10 µg/mL?
82.1
